- Tested on: HCT-116 colon
- Experiment summary: NCI-60 one-dose screen, 48 h (100 = growth as untreated, 0 = no growth, -100 = all killed)
- Experimental parameters: 10 µM
Compounds without any hit were thinned out: in the full panel of roughly 83,000, 20% have a hit.
Observed property: growth (%)
Field: numeric (%). Do not append units.

For this compound ( CNC(=O)c1cc(Oc2ccc(NC(=O)Nc3ccc(Cl)c(OC4CCCCC4)c3)c(F)c2)ccn1 ), measured growth is 11.9

For this compound ( CCOC(=O)c1c(C)n(-c2ccc(Cl)cc2)c2ccc(OC(=O)/C=C/c3ccccc3)cc12 ), measured growth is 90.6

For this compound ( Cc1ccccc1C1=N[C@@H](Cc2ccccc2)C(=O)c2c(nc3ccccn23)N1 ), measured growth is 86.9

For this compound ( C[C@@H]1C(=O)N(C[C@H](Cc2ccccc2)NC(=O)OCc2ccccc2)[C@]1(Cc1ccccc1)C(=O)OCc1ccccc1 ), measured growth is 32.3

For this compound ( CCc1c(C)[nH]c(=O)c(C(N)=O)c1C#N ), measured growth is 95.7

For this compound ( O=C(Cn1ccc(=O)[nH]c1=O)c1ccc([N+](=O)[O-])o1 ), measured growth is 88.7

For this compound ( CCCCCCCC/C=C/CCCCCCCCC1=NCCN1CCO ), measured growth is 7.94

For this compound ( Clc1ccc(-c2nc(-c3cccs3)cn3ccnc23)cc1 ), measured growth is 68

For this compound ( COc1ccccc1S(=O)(=O)Nc1ccc2c(c1)CN(C)C(=O)N2 ), measured growth is 49.7

For this compound ( Cc1ccc2c(c1)-c1cc(C)nn1-c1ccc(C#N)cc1O2 ), measured growth is 27.6
